Molecular target: IDO (SKOV-3 cells) (Homo sapiens)
Construct: This assay utilised cancer cells which expressed either TDO or IDO; host or cells: SKOV-3 ovary adenocarcinoma cells, IFNγ-induced
Sequence (P14902 whole entry): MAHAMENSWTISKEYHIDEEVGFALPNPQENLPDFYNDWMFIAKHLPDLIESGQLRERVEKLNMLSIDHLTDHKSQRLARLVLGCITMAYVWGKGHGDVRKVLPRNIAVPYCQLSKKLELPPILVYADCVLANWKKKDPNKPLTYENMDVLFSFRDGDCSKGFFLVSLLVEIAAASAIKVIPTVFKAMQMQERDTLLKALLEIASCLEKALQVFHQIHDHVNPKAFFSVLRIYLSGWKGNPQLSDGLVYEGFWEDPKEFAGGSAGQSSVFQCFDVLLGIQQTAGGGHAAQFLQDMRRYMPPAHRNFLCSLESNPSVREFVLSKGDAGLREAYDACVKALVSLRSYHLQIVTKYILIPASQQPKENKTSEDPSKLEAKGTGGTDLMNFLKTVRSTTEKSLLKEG
Experiment: IDO cell-based assay (SKOV-3, IFNγ-induced), kynurenine production
Settings: SKOV-3 ovary adenocarcinoma cells, IFNγ 500 ng/ml, 500 μM L-Trp, 48 h, kynurenine by absorbance at 490 nm
observed property: IDO cellular assay (SKOV3) pIC50

Use the examples below as a reference point.
molecule: CC(NC(=O)c1cc2cc(Cl)ccc2[nH]1)c1ccc(OCCN(C)C)cc1 (stereo not drawn)
observed result: + (+ = pIC50 4.50-<5.00)

molecule: C[C@@H](NC(=O)c1cc2cc(Cl)ccc2[nH]1)c1ccc(Cl)cc1
observed result: +++ (+++ = pIC50 ≥5.50)

molecule: O=C(NC1(c2ccccc2)CC1)c1cc2cc(Br)ccc2[nH]1
observed result: +++ (+++ = pIC50 ≥5.50)

molecule: Cn1cc(C2(NC(=O)c3cc4ccc(O)cc4[nH]3)CC2)cn1
observed result: + (+ = pIC50 4.50-<5.00)

molecule: O=C(Nc1cccc2ccccc12)c1cc2cc(F)ccc2[nH]1
observed result: +++ (+++ = pIC50 ≥5.50)

For each entry beneath this line, provide reported IDO cellular assay (SKOV3) pIC50.
1. COc1ccc(C(C)NC(=O)c2cc3cc(Cl)ccc3[nH]2)cc1 (stereo not drawn)
2. CC(C)Oc1ccc2[nH]c(C(=O)NC3(c4ccccc4)CC3)cc2c1

Result:
["+++ (+++ = pIC50 ≥5.50)", "+++ (+++ = pIC50 ≥5.50)"]

---

Molecular target: TDO (A172 cells) (Homo sapiens, UniProt P48775)
Construct: This assay utilised cancer cells which expressed either TDO or IDO; host or cells: A172 human glioblastoma cells
Sequence (P48775 whole entry): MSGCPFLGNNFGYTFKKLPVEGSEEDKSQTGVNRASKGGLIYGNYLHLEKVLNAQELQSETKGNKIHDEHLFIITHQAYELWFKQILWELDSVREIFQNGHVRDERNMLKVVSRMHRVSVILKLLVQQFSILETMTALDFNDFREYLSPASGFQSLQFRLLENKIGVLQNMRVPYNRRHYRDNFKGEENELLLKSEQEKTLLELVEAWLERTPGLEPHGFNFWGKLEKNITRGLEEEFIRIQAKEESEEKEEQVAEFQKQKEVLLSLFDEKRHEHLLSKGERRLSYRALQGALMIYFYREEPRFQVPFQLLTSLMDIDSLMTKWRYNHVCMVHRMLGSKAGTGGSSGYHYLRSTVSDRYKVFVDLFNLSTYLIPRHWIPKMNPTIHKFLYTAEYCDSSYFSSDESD
Test: TDO cell-based assay (A172), kynurenine production
Details: A172 human glioblastoma cells, 500 μM L-Trp, 48 h, kynurenine by absorbance at 490 nm
observed property: TDO cellular assay (A172) pIC50

# example entries with known answers
compound: O=C(NC1(c2ccn(-c3ccccc3)n2)CC1)c1cc2cc(Cl)ccc2[nH]1 [Compound 143]
tested on: TDO (A172 cells) (Homo sapiens, UniProt P48775)
observed property: TDO cellular assay (A172) pIC50
observed result: + (+ = pIC50 4.50-<5.00)
--
compound: CCc1ccc2[nH]c(C(=O)NC3(c4cnn(C)c4)CC3)cc2c1 [Compound 264]
tested on: TDO (A172 cells) (Homo sapiens, UniProt P48775)
observed property: TDO cellular assay (A172) pIC50
observed result: − (− = pIC50 <4.50)
--
compound: CC(NC(=O)c1cc2cc(Cl)ccc2[nH]1)c1ccc(N2CCN(C)CC2)cc1 (stereo not drawn) [Compound 95]
tested on: TDO (A172 cells) (Homo sapiens, UniProt P48775)
observed property: TDO cellular assay (A172) pIC50
observed result: − (− = pIC50 <4.50)
--
compound: Cn1cc(C2(NC(=O)c3cc4cc(OC(F)(F)F)ccc4[nH]3)CC2)cn1 [Compound 275]
tested on: TDO (A172 cells) (Homo sapiens, UniProt P48775)
observed property: TDO cellular assay (A172) pIC50
observed result: − (− = pIC50 <4.50)
--
compound: CCc1ccc2[nH]c(C(=O)NC(C)c3cnn(C)c3)cc2c1 (stereo not drawn) [Compound 243]
tested on: TDO (A172 cells) (Homo sapiens, UniProt P48775)
observed property: TDO cellular assay (A172) pIC50
observed result: − (− = pIC50 <4.50)

Answer for every listed entry: what is its TDO cellular assay (A172) pIC50? The entries follow.
1. CC(NC(=O)c1cc2cc(Cl)ccc2[nH]1)c1cnoc1 (stereo not drawn) [Compound 97]
2. O=C(NC1(c2ccccc2)COC1)c1cc2cc(Cl)c(F)cc2[nH]1 [Compound 210]

Result:
+ (+ = pIC50 4.50-<5.00)
+ (+ = pIC50 4.50-<5.00)

---

Biological target: TDO (A172 cells) (Homo sapiens, UniProt P48775)
Construct: This assay utilised cancer cells which expressed either TDO or IDO; host or cells: A172 human glioblastoma cells
Assay: TDO cell-based assay (A172), kynurenine production
Settings: A172 human glioblastoma cells, 500 μM L-Trp, 48 h, kynurenine by absorbance at 490 nm
observed property: TDO cellular assay (A172) pIC50

molecule: Cn1cc(C2(NC(=O)c3cc4cc(O)ccc4[nH]3)CC2)cn1
TDO cellular assay (A172) pIC50: − (− = pIC50 <4.50)
--
molecule: Cc1c(C(=O)N[C@H](C)c2ccccc2)[nH]c2ccc(F)cc12
TDO cellular assay (A172) pIC50: + (+ = pIC50 4.50-<5.00)
--
molecule: CC(NC(=O)c1cc2cc(Cl)ccc2[nH]1)c1cnn(-c2ccccc2)c1 (stereo not drawn)
TDO cellular assay (A172) pIC50: − (− = pIC50 <4.50)
--
molecule: COc1ccc2cc(C(=O)NC3(c4cnn(C)c4)CC3)[nH]c2c1
TDO cellular assay (A172) pIC50: − (− = pIC50 <4.50)
--
molecule: CC(NC(=O)c1cc2cc(F)ccc2[nH]1)c1ccccc1 (stereo not drawn)
TDO cellular assay (A172) pIC50: + (+ = pIC50 4.50-<5.00)

List the reported TDO cellular assay (A172) pIC50 of each molecule below.
1. CCC(NC(=O)c1cc2cc(Cl)ccc2[nH]1)c1cnn(C)c1 (stereo not drawn)
2. CCc1ccc2[nH]c(C(=O)NC3(c4ccccc4)CC3)cc2c1
3. CC(NC(=O)c1cc2ccccc2[nH]1)c1ccc(Cl)cc1 (stereo not drawn)

Result:
− (− = pIC50 <4.50)
− (− = pIC50 <4.50)
+ (+ = pIC50 4.50-<5.00)

---

Biological target: IDO (SKOV-3 cells) (Homo sapiens)
Construct: This assay utilised cancer cells which expressed either TDO or IDO; host or cells: SKOV-3 ovary adenocarcinoma cells, IFNγ-induced
Test: IDO cell-based assay (SKOV-3, IFNγ-induced), kynurenine production
Details: SKOV-3 ovary adenocarcinoma cells, IFNγ 500 ng/ml, 500 μM L-Trp, 48 h, kynurenine by absorbance at 490 nm
observed property: IDO cellular assay (SKOV3) pIC50

compound: Cc1nc(C2(NC(=O)c3cc4cc(C#N)ccc4[nH]3)CC2)co1
IDO cellular assay (SKOV3) pIC50: +++ (+++ = pIC50 ≥5.50)
--
compound: C[C@@H](NC(=O)c1cc2cc(OC(F)(F)F)ccc2[nH]1)c1ccccc1
IDO cellular assay (SKOV3) pIC50: +++ (+++ = pIC50 ≥5.50)
--
compound: C[C@H](NC(=O)c1cc2ccc(F)cc2[nH]1)c1ccccc1
IDO cellular assay (SKOV3) pIC50: + (+ = pIC50 4.50-<5.00)
--
compound: CCc1ccc2[nH]c(C(=O)NC(C)c3cnn(C)c3)cc2c1 (stereo not shown)
IDO cellular assay (SKOV3) pIC50: +++ (+++ = pIC50 ≥5.50)
--
compound: O=C(NC1(c2ccncc2)CC1)c1cc2cc(Cl)ccc2[nH]1
IDO cellular assay (SKOV3) pIC50: +++ (+++ = pIC50 ≥5.50)

Please report IDO cellular assay (SKOV3) pIC50 for every entry that follows.
1. Cn1cc(C2(NC(=O)c3cc4cc(Cl)ccc4[nH]3)CCOCC2)cn1
2. COc1ccc2cc(C(=O)Nc3cccc4ccccc34)[nH]c2c1
3. COc1ccc2[nH]c(C(=O)NC3(c4cnn(C)c4)CC3)cc2c1
4. O=C(NC1(c2ccccc2)CC1)c1cc2cc(Cl)c(F)cc2[nH]1
5. O=C(NC1(c2ccccc2)CC1)C1Cc2cc(Cl)ccc2N1 (stereo not shown)
6. O=C(NC1(c2ccc(F)cc2)CC1)c1cc2cc(Cl)ccc2[nH]1
7. CC(NC(=O)c1cc2cnccc2[nH]1)c1ccccc1 (stereo not shown)

Result:
1: +++ (+++ = pIC50 ≥5.50); 2: +++ (+++ = pIC50 ≥5.50); 3: +++ (+++ = pIC50 ≥5.50); 4: +++ (+++ = pIC50 ≥5.50); 5: +++ (+++ = pIC50 ≥5.50); 6: +++ (+++ = pIC50 ≥5.50); 7: + (+ = pIC50 4.50-<5.00)

---

Target: IDO (SKOV-3 cells) (Homo sapiens)
Construct: This assay utilised cancer cells which expressed either TDO or IDO; host or cells: SKOV-3 ovary adenocarcinoma cells, IFNγ-induced
Assay: IDO cell-based assay (SKOV-3, IFNγ-induced), kynurenine production
Conditions: SKOV-3 ovary adenocarcinoma cells, IFNγ 500 ng/ml, 500 μM L-Trp, 48 h, kynurenine by absorbance at 490 nm
observed property: IDO cellular assay (SKOV3) pIC50

molecule: O=C(Nc1cccc2ncccc12)c1cc2cc(F)ccc2[nH]1
IDO cellular assay (SKOV3) pIC50: +++ (+++ = pIC50 ≥5.50)
//
molecule: Cn1cc(C2(NC(=O)c3cc4cc(Cl)cc(F)c4[nH]3)CC2)cn1
IDO cellular assay (SKOV3) pIC50: +++ (+++ = pIC50 ≥5.50)
//
molecule: O=C(NC1(c2ccccc2)CC1)c1cc2cc(O)ccc2[nH]1
IDO cellular assay (SKOV3) pIC50: + (+ = pIC50 4.50-<5.00)
//
molecule: O=C(NC1(c2ccccc2)COC1)c1cc2cc(Cl)ccc2[nH]1
IDO cellular assay (SKOV3) pIC50: +++ (+++ = pIC50 ≥5.50)
//
molecule: CC(C)(NC(=O)c1cc2cc(Cl)ccc2[nH]1)c1ccccc1
IDO cellular assay (SKOV3) pIC50: +++ (+++ = pIC50 ≥5.50)

Hi team, please reply with IDO cellular assay (SKOV3) pIC50 for each item in this list.
1. COc1ccc2cc(C(=O)NC(C)c3cnn(C)c3)[nH]c2c1 (stereo not drawn)
2. N#Cc1ccc2[nH]c(C(=O)NC3(c4ccc(F)cc4)CC3)cc2c1
3. O=C(NC1(c2cccnc2)CC1)c1cc2cc(Cl)ccc2[nH]1
4. Cc1noc(C(C)NC(=O)c2cc3cc(C#N)ccc3[nH]2)n1 (stereo not drawn)

Result:
1. + (+ = pIC50 4.50-<5.00)
2. +++ (+++ = pIC50 ≥5.50)
3. +++ (+++ = pIC50 ≥5.50)
4. + (+ = pIC50 4.50-<5.00)

Data credit: patent US10167257B2
